Listed compounds paired with reported TGI
# Test system: NCI-H460 lung
# experimental.protocol: NCI tumour cell line growth inhibition, 48 h

Consider the reported TGI for these compounds:
compound=Cc1cc(C)nc(NS(=O)(=O)c2ccc(NC(=O)c3cccc4c(=O)c5ccccc5[nH]c34)cc2)n1 result="36.1 µM"
compound=CCOC(=O)c1c(N)n(-c2ccccc2)c(=S)n(-c2ccccc2)c1=O result="> 100 µM"
compound="COC(=O)C(CC(=O)c1cc2c(cc1I)OCO2)Cc1cc(OC)c(OC)c(OC)c1I (stereo not given)" result="> 100 µM"

Consider the compound CCCCCCCCCCCCOC1C(CNCC2OC3OC(C)(C)OC3C2NC(=O)Nc2ccc(C(=O)OCC)cc2)OC2OC(C)(C)OC21 (stereo not given) and give its measured TGI.
3.87 µM

Consider the compound C/C(=N\NC(N)=S)c1ccc(C)cc1C and give its measured TGI.
> 100 µM

Consider the compound CCOC(=O)CCCO and give its measured TGI.
> 100 µM

Consider the compound Nc1ncnc2c1ncn2C(=O)NC12CC3CC(CC(C3)C1)C2 and give its measured TGI.
> 100 µM

Consider the compound CN(C)c1ccc(/C=C2\C[N+](C)(C)C/C(=C\c3ccc(N(C)C)cc3)C2=O)cc1 and give its measured TGI.
> 59 µM

Consider the compound COc1cccc(-c2nc(-c3cnccn3)n(Cc3ccccc3)n2)c1 and give its measured TGI.
> 100 µM

Consider the compound CC1CC(C#N)=C2NCCCCN2C1=O (stereo not given) and give its measured TGI.
> 100 µM

Consider the compound Clc1ccc(Cc2nc3cc4ccccc4cc3[nH]2)cc1 and give its measured TGI.
> 100 µM

Consider the compound O=C(O)Cc1c[nH]c2ccc(F)cc12 and give its measured TGI.
> 100 µM

Consider the compound COC(=O)c1c2c(c(C)[n+]([O-])c1C)C(=O)C=CC2=O and give its measured TGI.
7.4 µM

Consider the compound CO/N=C1/c2sccc2[C@H](NC(=O)CNC(=O)OC(C)(C)C)[C@@H]1O and give its measured TGI.
> 100 µM

Consider the compound CCOC(=O)C(=O)N1C(C)=C(C(=O)OCC)CC(C(=O)OCC)=C1C and give its measured TGI.
> 100 µM

====

# Test system: NCI-H522 lung
# experimental.protocol: NCI tumour cell line growth inhibition, 48 h
assay.readout: TGI (µM)
Provide the reading as a plain figure in µM.

entry_smiles=O=C1N[C@@H]2c3c(csc3Br)C(=O)[C@@H]2O1 study_system="NCI-H522 lung" quantitative_readout=68.3
entry_smiles=Clc1cccc(NC=Nc2ccc(-c3nc4ccccc4s3)cc2)c1 study_system="NCI-H522 lung" quantitative_readout=22.3
entry_smiles=CCOc1ccc(N=C/C=C(\Cl)c2ccc3ccccc3c2)cc1 study_system="NCI-H522 lung" quantitative_readout=52.1

Consider the molecule CN(C)c1ccc2c(c1)oc(=O)c1ccccc12 and give its measured TGI.
20.9

Consider the molecule O=C1Oc2cc3c(c4cccc1c24)OCN(c1ccc(Cl)cc1)C3 and give its measured TGI.
30.8

====

# Test system: EKVX NSCLC
# experimental.protocol: NCI tumour cell line growth inhibition, 48 h
assay.readout: TGI

Consider the reported TGI for these compounds:
compound=ClCc1ccccc1CSc1ncnc2nc[nH]c12 result="> 60 µM"
compound=O=C(Cc1ccc(/C=C/C(=O)c2ncc[nH]2)cc1)Nc1ccc(Cl)cc1 result="20.2 µM"
compound=NNC(=O)c1cnn(-c2ccnc3c(C(F)(F)F)cccc23)c1N result="> 100 µM"
compound="CC1CCC[P+](Cc2ccccc2)(c2ccccc2)CC1 (stereo not drawn)" result="> 100 µM"
compound=C[C@]12CC/C(=N\O)C=C1CC[C@@H]1[C@@H]2CC[C@]2(C)C(=N/O)/C(=C/c3cccnc3)C[C@@H]12 result="79.5 µM"

Consider the compound CCOc1ccc2nc(NC(=O)/C(CC(=O)CC(C3=C(O)c4ccccc4CC3=O)c3ccccc3)=N\O)sc2c1 (stereo not drawn) and give its measured TGI.
> 100 µM

Consider the compound Cc1cc(C)c2c(n1)S(=O)(=O)N(CCCN1CCN(c3cccc(C(F)(F)F)c3)CC1)/C(=C(\O)c1ccc(Cl)cc1)C2=O and give its measured TGI.
10.7 µM

Consider the compound N#CC(C#N)=C1CCCS(=O)(=O)c2ccccc21 and give its measured TGI.
> 100 µM

Consider the compound Cc1nc2ccc([N+](=O)[O-])cc2c(=O)n1C(=S)Nc1cccc(Cl)c1 and give its measured TGI.
> 100 µM

Consider the compound Cc1cccc(C(C)(C)C)c1NC(=O)C(=O)Cc1nc2ccccc2s1 and give its measured TGI.
> 100 µM

Consider the compound CC1(C)N=C(N)N=C(N)N1c1ccc(CCCCc2ccc(S(=O)(=O)F)cc2Cl)c(Cl)c1 and give its measured TGI.
161 µM

====

Listed molecules paired with reported TGI
# Test system: SF-539 CNS
# experimental.protocol: NCI tumour cell line growth inhibition, 48 h

Consider the reported TGI for these molecules:
molecule=Cc1c(Cl)cccc1Nc1ncccc1C(=O)O result="> 100 µM"
molecule=Cc1ccc(C(=O)Nc2ccc(CP(=O)(O)O)cc2)cc1NC(=O)c1cccc(NC(=O)Nc2cccc(C(=O)Nc3cc(C(=O)Nc4ccc(CP(=O)(O)O)cc4)ccc3C)c2)c1 result="> 100 µM"

Value wanted: TGI (SF-539 CNS) of entry CCCCn1/c(=N/C(=S)N(C)C)ss/c1=N\C(=S)N(C)C
> 100 µM

Value wanted: TGI (SF-539 CNS) of entry Cc1cccc(C(C)(C)C)c1NC(=O)C(=O)Cc1nc2ccccc2s1
> 100 µM

====

# System: MDA-MB-231 breast
# experimental.protocol: NCI tumour cell line growth inhibition, 48 h
Listed molecules paired with reported TGI

molecule=O=C(O)c1ccc(NS(=O)(=O)Cc2ccccc2)cc1 result="> 100 µM"

Consider the molecule CCN(CC)CCCn1c(=O)c2cccnc2n2c3c(=O)n(C)c(=O)n(C)c3nc12 and give its measured TGI.
> 100 µM

Consider the molecule COc1cccc(-c2nn(-c3ccccc3)cc2-c2ccnc(NCCCNS(=O)(=O)c3cccc(F)c3)c2)c1 and give its measured TGI.
> 100 µM

====

Listed compounds paired with reported TGI
# Test system: SR leukemia
# experimental.protocol: NCI tumour cell line growth inhibition, 48 h

Consider the reported TGI for these compounds:
compound=CC1=CC(=O)N(n2c(C)n[nH]c2=O)C1=O assay_readout=TGI result="> 100 µM"
compound=COC(c1ccc(C(C)(C)C)cc1)(c1ccc(C(C)(C)C)cc1)c1cc(C(O)(c2cc(C(OC)(c3ccc(C(C)(C)C)cc3)c3ccc(C(C)(C)C)cc3)c(C)cc2C)c2cc(C(OC)(c3ccc(C(C)(C)C)cc3)c3ccc(C(C)(C)C)cc3)c(C)cc2C)c(C)cc1C assay_readout=TGI result="> 100 µM"
compound="c1ccc2c(c1)CCCN1CCc3ccccc3C21 (stereo unspecified)" assay_readout=TGI result="> 100 µM"
compound=ClCc1ccccc1CSc1ncnc2nc[nH]c12 assay_readout=TGI result="> 60 µM"
compound="CC(C)(C)C1=NC(S)NC(CCC(=O)Nc2ccccc2[N+](=O)[O-])=C1 (stereo unspecified)" assay_readout=TGI result="> 100 µM"

Value wanted: TGI (SR leukemia) of entry O=C1/C(=C/c2ccc(F)cc2)CNC/C1=C\c1ccc(F)cc1
> 100 µM

Value wanted: TGI (SR leukemia) of entry O=C1CSC(N2CCN(c3cccc(Cl)c3)CC2)=N1
> 100 µM

Value wanted: TGI (SR leukemia) of entry CC1=C[C@@H]2Cc3occc3C(C)(C)[C@@H]2CC1
32.7 µM

Value wanted: TGI (SR leukemia) of entry CCOc1ccc(N=C/C=C(\Cl)c2ccc3ccccc3c2)cc1
5.31 µM

Value wanted: TGI (SR leukemia) of entry Brc1ccc2c3c1[C@@H]1O[C@@H]1c1cccc(c1-3)[C@@H]1O[C@H]21
> 100 µM

Value wanted: TGI (SR leukemia) of entry O=C1/C(=C/c2ccc([N+](=O)[O-])cc2)CNC/C1=C\c1ccc([N+](=O)[O-])cc1
1.15 µM

====

# System: RXF 393 renal
# experimental.protocol: NCI tumour cell line growth inhibition, 48 h
Listed molecules paired with reported TGI

molecule=C(=Nc1ccc(-c2nc3ccccc3s2)cc1)c1ccco1 result="> 100 µM"

Consider the molecule NCCCC(N)C(=O)O (centres undefined) and give its measured TGI.
> 100 µM

Consider the molecule COC(=O)[C@@H](C)C[C@H](Cc1ccccc1)NC(=O)c1nc([C@@H](C[C@H](C(C)C)N(C)C(=O)[C@@H](NC(=O)[C@H]2CCCN2C)C(C)C)OC(C)=O)sc1C and give its measured TGI.
> 25 µM

Consider the molecule O=C(Nc1ccccc1[N+](=O)[O-])c1ccccc1 and give its measured TGI.
> 100 µM

====

Listed compounds paired with reported TGI
# System: ACHN renal
# experimental.protocol: NCI tumour cell line growth inhibition, 48 h

Consider the reported TGI for these compounds:
compound=O=C(/C=C(\[O-])c1ccccc1)CCCCCCC(=O)/C=C(\[O-])c1ccccc1.O=C(/C=C(\[O-])c1ccccc1)CCCCCCC(=O)/C=C(\[O-])c1ccccc1.O=C(/C=C(\[O-])c1ccccc1)CCCCCCC(=O)/C=C(\[O-])c1ccccc1.[La+3].[La+3] assay_readout=TGI result="> 50 µM"
compound=O=C(O)CNC(=O)c1ccc([As](=O)(O)O)cc1 assay_readout=TGI result="> 100 µM"
compound=C(=Nc1ccc(-c2nc3ccccc3s2)cc1)c1ccco1 assay_readout=TGI result="> 100 µM"
compound=Cc1ccc(C2=Nc3c(c(C)nn3-c3ccccc3)N=C(C(=O)O)C2)cc1 assay_readout=TGI result="> 10 µM"
compound=NS(=O)(=O)c1ccc(-n2nc(-c3ccc(Br)cc3)ccc2=O)cc1 assay_readout=TGI result="> 10 µM"

Could you now look at the following compound, please?
Value wanted: TGI (ACHN renal) of entry COC(=O)CCCC(=O)C(=Nc1c(Cl)cccc1Cl)NNc1ccc(Cl)cc1
> 100 µM

# credit: PubChem BioAssay (NCI)
